Tested on: HeLa Kyoto;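 also: synchronized HeLa Kyoto cells, proteins quantified by TMT10plex mass spectrometry, three biological replicates, mitosis taken 0.5 h after nocodazole release, G1/S directly after double thymidine block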
Experiment: thermal stability score vs G1/S (z-score of summed log2 fold changes over temperatures); higher = more thermally stable than in G1/S
Settings: cell cycle stage: mitosis
Each record gets a class by thermal stability score: 0: < -0.9; 1: ≥ -0.9 and < 0.3; 2: ≥ 0.3

INSERT INTO assay_data (substance, test_target, class_label) VALUES
  ('MSGLSGPPARRGPFPLALLLLFLLGPRLVLAISFHLPINSRKCLREEIHKDLLVTGAYEISDQSGGAGGLRSHLKITDSAGHILYSKEDATKGKFAFTTEDYDMFEVCFESKGTGRIPDQLVILDMKHGVEAKNYEEIAKVEKLKPLEVELRRLEDLSESIVNDFAYMKKREEEMRDTNESTNTRVLYFSIFSMFCLIGLATWQVFYLRRFFKAKKLIE [TMED10]', 'HeLa Kyoto', 1),
  ('MENGYTYEDYKNTAEWLLSHTKHRPQVAIICGSGLGGLTDKLTQAQIFDYGEIPNFPRSTVPGHAGRLVFGFLNGRACVMMQGRFHMYEGYPLWKVTFPVRVFHLLGVDTLVVTNAAGGLNPKFEVGDIMLIRDHINLPGFSGQNPLRGPNDERFGDRFPAMSDAYDRTMRQRALSTWKQMGEQRELQEGTYVMVAGPSFETVAECRVLQKLGADAVGMSTVPEVIVARHCGLRVFGFSLITNKVIMDYESLEKANHEEVLAAGKQAAQKLEQFVSILMASIPLPDKAS [PNP]', 'HeLa Kyoto', 0),
  ('MSVPGPYQAATGPSSAPSAPPSYEETVAVNSYYPTPPAPMPGPTTGLVTGPDGKGMNPPSYYTQPAPIPNNNPITVQTVYVQHPITFLDRPIQMCCPSCNKMIVSQLSYNAGALTWLSCGSLCLLGCIAGCCFIPFCVDALQDVDHYCPNCRALLGTYKRL [LITAF]', 'HeLa Kyoto', 0),
  ('MEGGGGSGNKTTGGLAGFFGAGGAGYSHADLAGVPLTGMNPLSPYLNVDPRYLVQDTDEFILPTGANKTRGRFELAFFTIGGCCMTGAAFGAMNGLRLGLKETQNMAWSKPRNVQILNMVTRQGALWANTLGSLALLYSAFGVIIEKTRGAEDDLNTVAAGTMTGMLYKCTGGLRGIARGGLTGLTLTSLYALYNNWEHMKGSLLQQSL [TIMM23]', 'HeLa Kyoto', 0),
  ('ARHGEF5', 'HeLa Kyoto', 2),
  ('MAEPDPSHPLETQAGKVQEAQDSDSDSEGGAAGGEADMDFLRNLFSQTLSLGSQKERLLDELTLEGVARYMQSERCRRVICLVGAGISTSAGIPDFRSPSTGLYDNLEKYHLPYPEAIFEISYFKKHPEPFFALAKELYPGQFKPTICHYFMRLLKDKGLLLRCYTQNIDTLERIAGLEQEDLVEAHGTFYTSHCVSASCRHEYPLSWMKEKIFSEVTPKCEDCQSLVKPDIVFFGESLPARFFSCMQSDFLKVDLLLVMGTSLQVQPFASLISKAPLSTPRLLINKEKAGQSDPFLGMIMGLGGGMDFDSKKAYRDVAWLGECDQGCLALAELLGWKKELEDLVRREHASIDAQSGAGVPNPSTSASPKKSPPPAKDEARTTEREKPQ [SIRT2]', 'HeLa Kyoto', 1),
  ('MSSDFEGYEQDFAVLTAEITSKIARVPRLPPDEKKQMVANVEKQLEEAKELLEQMDLEVREIPPQSRGMYSNRMRSYKQEMGKLETDFKRSRIAYSDEVRNELLGDDGNSSENQRAHLLDNTERLERSSRRLEAGYQIAVETEQIGQEMLENLSHDREKIQRARERLRETDANLGKSSRILTGMLRRIIQNRILLVILGIIVVITILMAITFSVRRH [VTI1A]', 'HeLa Kyoto', 0),
  ('MARFALTVVRHGETRFNKEKIIQGQGVDEPLSETGFKQAAAAGIFLNNVKFTHAFSSDLMRTKQTMHGILERSKFCKDMTVKYDSRLRERKYGVVEGKALSELRAMAKAAREECPVFTPPGGETLDQVKMRGIDFFEFLCQLILKEADQKEQFSQGSPSNCLETSLAEIFPLGKNHSSKVNSDSGIPGLAASVLVVSHGAYMRSLFDYFLTDLKCSLPATLSRSELMSVTPNTGMSLFIINFEEGREVKPTVQCICMNLQDHLNGLTETR [TIGAR]', 'HeLa Kyoto', 1),
  ('MDDQGCPRCKTTKYRNPSLKLMVNVCGHTLCESCVDLLFVRGAGNCPECGTPLRKSNFRVQLFEDPTVDKEVEIRKKVLKIYNKREEDFPSLREYNDFLEEVEEIVFNLTNNVDLDNTKKKMEIYQKENKDVIQKNKLKLTREQEELEEALEVERQENEQRRLFIQKEEQLQQILKRKNKQAFLDELESSDLPVALLLAQHKDRSTQLEMQLEKPKPVKPVTFSTGIKMGQHISLAPIHKLEEALYEYQPLQIETYGPHVPELEMLGRLGYLNHVRAASPQDLAGGYTSSLACHRALQDAFSGLFWQPS [MNAT1]', 'HeLa Kyoto', 1),
  ('MPGSAAKGSELSERIESFVETLKRGGGPRSSEEMARETLGLLRQIITDHRWSNAGELMELIRREGRRMTAAQPSETTVGNMVRRVLKIIREEYGRLHGRSDESDQQESLHKLLTSGGLNEDFSFHYAQLQSNIIEAINELLVELEGTMENIAAQALEHIHSNEVIMTIGFSRTVEAFLKEAARKRKFHVIVAECAPFCQGHEMAVNLSKAGIETTVMTDAAIFAVMSRVNKVIIGTKTILANGALRAVTGTHTLALAAKHHSTPLIVCAPMFKLSPQFPNEEDSFHKFVAPEEVLPFTEGDILEKVSVHCPVFDYVPPELITLFISNIGGNAPSYIYRLMSELYHPDDHVL [EIF2B2]', 'HeLa Kyoto', 2),
  ('MRSGGRGRPRLRLGERGLMEPLLPPKRRLLPRVRLLPLLLALAVGSAFYTIWSGWHRRTEELPLGRELRVPLIGSLPEARLRRVVGQLDPQRLWSTYLRPLLVVRTPGSPGNLQVRKFLEATLRSLTAGWHVELDPFTASTPLGPVDFGNVVATLDPRAARHLTLACHYDSKLFPPGSTPFVGATDSAVPCALLLELAQALDLELSRAKKQAAPVTLQLLFLDGEEALKEWGPKDSLYGSRHLAQLMESIPHSPGPTRIQAIELFMLLDLLGAPNPTFYSHFPRTVRWFHRLRSIEKRLHRLNLLQSHPQEVMYFQPGEPFGSVEDDHIPFLRRGVPVLHLISTPFPAVWHTPADTEVNLHPPTVHNLCRILAVFLAEYLGL [QPCTL]', 'HeLa Kyoto', 2);
